Reference source for all entries: PubChem BioAssay (EPA / NIEHS)

target_entity: Retinoic acid receptor RXR-alpha (Homo sapiens) (UniProt P19793)
Sequence (P19793 whole entry, looked up): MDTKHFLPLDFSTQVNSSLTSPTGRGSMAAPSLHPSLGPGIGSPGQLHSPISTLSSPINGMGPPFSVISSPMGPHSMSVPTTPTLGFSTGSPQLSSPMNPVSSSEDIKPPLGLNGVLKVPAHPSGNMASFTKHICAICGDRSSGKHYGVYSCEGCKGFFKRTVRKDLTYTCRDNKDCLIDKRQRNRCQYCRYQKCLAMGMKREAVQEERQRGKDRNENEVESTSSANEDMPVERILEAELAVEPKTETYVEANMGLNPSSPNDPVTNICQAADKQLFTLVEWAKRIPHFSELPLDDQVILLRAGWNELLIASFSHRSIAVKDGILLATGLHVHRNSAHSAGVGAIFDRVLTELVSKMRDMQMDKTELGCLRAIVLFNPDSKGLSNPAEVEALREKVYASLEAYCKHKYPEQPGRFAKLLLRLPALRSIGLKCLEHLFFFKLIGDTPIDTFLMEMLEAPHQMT
measurement_protocol: ATG_RXRa_TRANS: Attagene TRANS-FACTORIAL HepG2 Assay for human Retinoid X Receptor alpha (RXRa) (AID 2283012)
Inconclusive results are not listed. Calls of active or inactive are those of the source. How the source made its calls: active means hit-call score of the fitted dose curve at least 0.9, where 1 is the maximum; inconclusive means response in the unintended direction; inactive means score below 0.9.
Outcome codes: 1 (active), -1 (inactive)

O=C(O)c1cc(Cl)cc([N+](=O)[O-])c1Cl = -1
CCCCCC/C=C\CCCCCCCC(=O)O = -1
CC(C)CCCCCOC(=O)CCS = -1
NC(=O)NNC(N)=O = -1
CCCCCCCC/C=C\CCCCCCCC(=O)O = -1
Cc1ccc(OC(=O)CC(C)C)cc1 = -1
CC/C=C\C/C=C\C/C=C\CCCCCCCC(=O)O = -1
CCCCCCCC/C=C\CCCCCCCC(=O)OCCO = -1
OC1CCCCCCCCCCC1 = -1
O=C(c1ccccc1)C1CCC1 = -1
CCCCCCCCO[C@@H]1O[C@H](CO)[C@@H](O)[C@H](O)[C@H]1O = -1
Clc1nc2ccccc2s1 = -1
CCCCCCCCCCc1ccccc1 = -1
CNC(=S)N(C)C = -1
O=C(Cl)c1cc(C(=O)Cl)cc(C(=O)Cl)c1 = -1
Nc1ccc(Cl)cc1Cl = -1
NC(=O)c1ccccc1O = -1
CCOc1ccc(N)c([N+](=O)[O-])c1 = -1
C=C(C)[C@H]1CC=C(C)CC1 = -1
CCOC(=O)Cc1cccc2ccccc12 = -1
O=C1CCC(=O)N1Cl = -1
CC(C)(C)C(=O)C=Cc1ccc(Cl)cc1 = -1
O=Nc1ccc(O)cc1 = -1
CCCCCCC(O)CO (stereo unspecified) = -1
[Cl][Bi]([Cl])([c]1ccccc1)([c]1ccccc1)[c]1ccccc1 = 1
O=C(c1ccccc1)c1ccc(O)c(O)c1O = -1

###

target_entity: Steroid hormone receptor ERR1 (Homo sapiens)
measurement_protocol: ATG_ERRa_TRANS: Attagene TRANS-FACTORIAL HepG2 Assay for human Estrogen-Related Receptor alpha (ERRa) (AID 2282971)
condition_details: HepG2 Attagene TRANS reporter, ERRa transactivation
Inconclusive results are not listed. Activity calls are given as the source filed them. Rule for the calls: active = hit-call score of the fitted dose curve at least 0.9, where 1 is the maximum; inconclusive = response in the unintended direction; inactive = score below 0.9.
assay_endpoint: outcome

COC(=O)c1ccccc1OC = inactive
CCC(C)OC(=O)c1ccc(O)cc1 (configuration not stated) = inactive
CC(=O)OCc1ccco1 = inactive
C[C@]12C=CC(=O)C=C1CC[C@@H]1[C@@H]2[C@@H](O)C[C@@]2(C)[C@H]1CC[C@]2(O)C(=O)CO = inactive
OC1CCCC1 = inactive
O=[N+]([O-])C1(Br)COCOC1 = inactive
CC(=O)[C@@]1(O)CC[C@H]2[C@@H]3C[C@H](C)C4=CC(=O)C=C[C@]4(C)[C@@]3(F)[C@@H](O)C[C@@]21C = inactive

###

measurement_protocol: ATG_CRE_CIS: Attagene CIS-FACTORIAL HepG2 Assay for human cAMP Responsive Element (CRE) binding protein 3 (AID 2282926)
condition_details: HepG2 CRE cis-reporter, Attagene multiplexed mRNA; actives raise or lower the signal
Active and inactive are the calls of the source. How the source made its calls: active means hit-call score of the fitted dose curve at least 0.9, where 1 is the maximum; inactive means score below 0.9.
Outcomes: active, inactive

CC(C)(c1cc(Br)c(OCCO)c(Br)c1)c1cc(Br)c(OCCO)c(Br)c1 = active
CCCc1ccc(OC)cc1 = inactive
CC(C)(C)C(=O)C=Cc1ccc(Cl)cc1 = inactive
CCN(CCC#N)c1ccc(N=Nc2c(Cl)cc([N+](=O)[O-])cc2Cl)cc1 = inactive
O=C(O)CC(C(=O)O)C(CC(=O)O)C(=O)O (configuration not stated) = inactive
Clc1nc2ccccc2s1 = inactive
CC(C)(C)C1CCCCC1=O (configuration not stated) = inactive
